Each item that follows carries a reported Mean Steroid Concentration, estriol.
Tested on: estrogen synthesis
Assay: Estrogen synthesis inhibition in rats (uterine weight and ovarian steroid concentrations)
Assay type: in vivo, female Wistar rats
Settings: 30 ppm in feed (approximately 3 mg/kg/day), ovaries
Counter-ions that a name gives are not always drawn.

Here is how some compounds turned out for Mean Steroid Concentration, estriol.
Compound	Mean Steroid Concentration, estriol
Clc1ccc(COc2ccccc2Cn2ccnc2)c(Cl)c1	0.33 femtomoles per milligram of protein
O=[N+]([O-])c1ccc(Cn2ccnc2)cc1 [hydrochloride]	0.80 femtomoles per milligram of protein
CCOc1ccccc1C(C1CCCCC1)n1ccnc1 (stereo not drawn) [hydrochloride]	0.36 femtomoles per milligram of protein
Clc1ccc(C(c2ccc(Cl)cc2)(c2cccnc2)n2cncn2)cc1	0.36 femtomoles per milligram of protein
c1ccc(C(c2ccccc2)(c2ccccc2)n2ccnc2)cc1	0.44 femtomoles per milligram of protein

Let us examine a further case.
[Q] What Mean Steroid Concentration, estriol value was documented for this compound, `C#CC(c1ccccc1)(c1ccccc1)n1ccnc1` ?
[A] 1.06 femtomoles per milligram of protein

----------
Biological target: aromatase (Rattus norvegicus, UniProt P22443)
Construct: ovarian microsomes are obtained from rats treated with pregnant mares serum gonadotropin
Sequence (P22443 whole entry): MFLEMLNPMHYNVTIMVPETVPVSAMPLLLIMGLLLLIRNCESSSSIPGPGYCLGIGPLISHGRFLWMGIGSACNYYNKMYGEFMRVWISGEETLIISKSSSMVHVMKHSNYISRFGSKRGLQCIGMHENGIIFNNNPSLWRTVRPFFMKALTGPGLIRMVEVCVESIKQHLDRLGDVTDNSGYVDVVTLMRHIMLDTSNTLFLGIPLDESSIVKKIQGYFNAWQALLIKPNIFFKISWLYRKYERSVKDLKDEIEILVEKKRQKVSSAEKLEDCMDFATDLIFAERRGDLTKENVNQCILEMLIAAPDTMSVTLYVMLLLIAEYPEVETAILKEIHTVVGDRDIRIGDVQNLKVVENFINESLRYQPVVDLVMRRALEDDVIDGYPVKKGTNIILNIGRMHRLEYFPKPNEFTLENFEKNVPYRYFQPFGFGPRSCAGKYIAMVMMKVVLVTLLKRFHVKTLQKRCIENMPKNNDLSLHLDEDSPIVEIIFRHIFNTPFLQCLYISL
Assay: Aromatase inhibition in the rat ovarian microsome assay
Settings: EC50: concentration required to achieve 50% inhibition of aromatase activity, substrate (androstenedione) concentration 0.1 μM
Structures can show the parent of a compound that is named as a salt.
EC50 values for the compounds below.
Number only, in nM; omit the unit.

Worked examples, 6 compounds total:
Compound	Readout Number
Cc1nccn1C(c1ccccc1)(c1ccc(F)cc1)c1ccc(F)cc1	80
Cl.Clc1cccc(Cn2ccnc2)c1Cl [hydrochloride]	87
c1ccc(C2(n3ccnc3)CCCCCC2)cc1	110
Clc1ccc(Cn2ccnc2)cc1 [hydrochloride]	450
C=C(c1ccccc1OCc1cccc(Cl)c1)n1ccnc1 [hydrochloride]	165
Clc1ccc(Cn2ccnc2)cc1Cl [hydrochloride]	320

[Q] Param item = `Clc1ccc(C(c2ccc(Cl)cc2)(c2ccc(Cl)cc2)n2ccnc2)cc1` ; retrieve measured EC50.
[A] 270

[Q] Which EC50 is reported for this compound? `COc1ccc(C(c2ccccc2)(c2ccc(OC)cc2)n2cncn2)cc1`
[A] 240

[Q] // EC50 lookup, key: `Clc1ccc(C(c2ccccc2)(c2ccccc2)n2cncn2)cc1`
[A] 95

[Q] Please give the measured EC50 for this compound: O=[N+]([O-])c1ccc(Cn2ccnc2)cc1 [hydrochloride]
[A] 29

[Q] Requested read-out: EC50. Entry: Fc1ccc(C(c2ccc(Cl)cc2)n2cnnc2)cc1 (stereo not shown)
[A] 80

----------
EC50 by entry:
Target: aromatase (Rattus norvegicus)
Construct: ovarian microsomes are obtained from rats treated with pregnant mares serum gonadotropin
Assay: Aromatase inhibition in the rat ovarian microsome assay
Conditions: EC50: concentration required to achieve 50% inhibition of aromatase activity, substrate (androstenedione) concentration 0.1 μM
Counter-ions that a name gives are not always drawn.
Value expressed in nM; do not type the unit.

Answered examples (5):
Molecule	Target Or System	EC50 [nM]
Clc1ccc(C(c2ccccc2)(c2ccc(Cl)cc2)n2cncn2)cc1	aromatase (Rattus norvegicus)	110
COc1cccc(Cn2ccnc2)c1	aromatase (Rattus norvegicus)	1250
CCCC(c1ccccc1OCc1ccc(Cl)cc1Cl)n1ccnc1 (stereo not drawn)	aromatase (Rattus norvegicus)	125
Clc1ccc(COc2ccccc2Cn2ccnc2)c(Cl)c1	aromatase (Rattus norvegicus)	68
FC(F)(F)c1cccc(Cn2ccnc2)c1 [hydrochloride]	aromatase (Rattus norvegicus)	390

Moving on to the next molecule.
[Q] Name the recorded EC50 for Cc1ccccc1Cn1ccnc1 [hydrochloride] .
[A] 1500

// provenance: patent US4755526A
